src = ChEMBL document CHEMBL1137107

Species: Rattus norvegicus
procedureDetails: Ratio of binding affinity for D2-like receptor to that of dopamine D3 receptor
This listing pairs molecules with measured Selectivity.
quantityKind: Selectivity

> print(dat)
                             chemicalsmiles  reported
1     c1ccc(CCCCN2CCC3=C(CCc4ccccc43)C2)cc1         1
2  O=C(NCCCCN1CCC2=C(CCc3ccccc32)C1)c1ccc2ccccc2c1       133
3                CCCN1CCC2=C(CCc3ccccc32)C1         1
4              CCCCCN1CCC2=C(CCc3ccccc32)C1         1
5       c1ccc(CCN2CCC3=C(CCc4ccccc43)C2)cc1        39
6               CCCCN1CCC2=C(CCc3ccccc32)C1         5
